Overview of recorded Potency for various compounds
assayName: Quantitative High-Throughput drug screen in 47 multiple myeloma cell lines against the NCATS MIPE library collection: MMM1_PLB cell viability assay (AID 1918976); further: potency means the concentration at half of the fitted maximal effect; nearly all actives have a fitted effect of over 35% in size
conditionSet: MMM1 myeloma cells viability, CellTiter-Glo, 48 h; series mostly up to 45.8 µM
Results filed as inconclusive are left out. Calls of active or inactive are those of the source. The call rests on the fitted dose curve; in most records, active means well fitted cell-killing curve with a large enough effect; inconclusive means small, poorly fitted or top-dose-only effect, or effect the other way; inactive means no such curve, though single readings can be large or run the other way.
measurementLabel: Potency

| compound | measurementLabel | result |
| --- | --- | --- |
| N#Cc1ccc(C(c2ccc(C#N)cc2)n2cncn2)cc1 | Potency | 11.8 µM (active) |
| COc1ccc(-c2c(-c3ccc(O)cc3O)n[nH]c2C)cc1 | Potency | 42.9 µM (active) |
| Cc1ccccc1C(C(=O)NC1CCCC1)N(C(=O)Cn1cnc2ccccc21)c1cccc(F)c1 (stereo unspecified) | Potency | 16.6 µM (active) |
| CCn1c(-c2nonc2N)nc2cnc(Oc3cccc(NC(=O)c4ccc(OCCN5CCOCC5)cc4)c3)cc21 | Potency | 10.5 µM (active) |
| Cc1ccc(-n2nc(C(C)(C)C)cc2NC(=O)Nc2ccc(OCCN3CCOCC3)c3ccccc23)cc1 | Potency | 20.9 µM (active) |
| Clc1ccc(Nc2nnc(Cc3ccncc3)c3ccccc23)cc1 | Potency | 18.7 µM (active) |
| CCc1cncnc1N1CCN(Cc2nc3ccc(C(F)(F)F)cc3[nH]2)CC1 | Potency | 16.6 µM (active) |
| O=c1ncn2nc(Sc3ccc(F)cc3F)ccc2c1-c1c(Cl)cccc1Cl | Potency | 20.9 µM (active) |
| CCOc1cc(C(=O)Nc2ccc(Cl)c(-c3nc4ccccc4[nH]3)c2)cc(OCC)c1OCC | Potency | 20.9 µM (active) |
| NCCc1ccc(O)c(O)c1 | Potency | 7.43 µM (active) |
| Cc1cc2c(C(C)C)c(O)c(O)c(C=O)c2c(O)c1-c1c(C)cc2c(C(C)C)c(O)c(O)c(C=O)c2c1O | Potency | 18.7 µM (active) |
| CCOC(=O)C1=C[C@]2(CC)CCCN3CCc4c(n1c1ccccc41)[C@@H]32 | Potency | 14.8 µM (active) |
| C#Cc1cccc(Nc2ncnc3cc(OCCOC)c(OCCOC)cc23)c1 | Potency | 0.59 µM (active) |
| CN(C)c1ccc(C2Nc3ccc4ccccc4c3C3=C2C(=O)CC(C)(C)C3)cc1Br (stereo unspecified) | Potency | 14.8 µM (active) |
| Cc1cc([C@@H](C)Nc2ccccc2C(=O)O)c2nc(N3CCOCC3)cc(=O)n2c1 | Potency | 19.1 µM (active) |
| Cc1c(CCOc2ccc(C(=O)O)cc2)c2cc(Cl)ccc2n1C(c1ccccc1)c1ccccc1 | Potency | 14.8 µM (active) |

Data origin: PubChem BioAssay (NCATS)
